# maps each entry to its IC50
System: pMAPK (Thr202/Tyr204) in MDA-MB453 or DMS 114 cells
Assay: Detection of pMAPK (Thr202/Tyr204) using Alpha ELISA (pERK alphaLISA)
Type: cell-based
Settings: 1 hr incubation with compound; cell line not given (MDA-MB453 or DMS 114)

{"Compound": "C=CC(=O)N[C@H]1CCCC[C@H]1Nc1ncc2cc(-c3c(Cl)c(OC)cc(OC)c3Cl)ccc2n1", "IC50": "10 to 100 nM"}
{"Compound": "C=CC(=O)N[C@H]1CCC[C@H]1Nc1ncc2cc(-c3c(Cl)c(OC)cc(OC)c3Cl)ccc2n1", "IC50": "10 to 100 nM"}
{"Compound": "C=CC(=O)N[C@H]1CCC[C@H]1Nc1ncc2nc(-c3c(Cl)c(OC)cc(OC)c3Cl)c(=O)n(CC)c2n1", "IC50": "100 to 1000 nM"}
{"Compound": "C=CC(=O)N[C@H]1CN(C(=O)COC)C[C@H]1Nc1ncc2cc(-c3c(Cl)c(OC)cc(OC)c3Cl)ccc2n1", "IC50": "< 10 nM"}
{"Compound": "C=CC(=O)NC1COCC1Nc1ncc2cc(-c3c(Cl)c(OC)cc(OC)c3Cl)ccc2n1 (stereo not shown)", "IC50": "10 to 100 nM"}
{"Compound": "C=CC(=O)N[C@H]1COC[C@H]1Nc1ncc2cc(-c3c(Cl)c(OC)cc(OC)c3Cl)cc(F)c2n1", "IC50": "< 10 nM"}
{"Compound": "C=CC(=O)N[C@H]1CN(C(=O)OC(C)(C)C)C[C@H]1Nc1ncc2cc(-c3c(Cl)c(OC)cc(OC)c3Cl)ccc2n1 (racemic)", "IC50": "100 to 1000 nM"}
{"Compound": "C=CC(=O)NC1CN(C(=O)COC)CC1Nc1ncc2cc(-c3c(Cl)c(OC)cc(OC)c3Cl)ccc2n1 (stereo not shown)", "IC50": "10 to 100 nM"}
{"Compound": "C=CC(=O)N[C@H]1CCOC[C@H]1Nc1ncc2cc(-c3c(Cl)c(OC)cc(OC)c3Cl)c(F)cc2n1", "IC50": "< 10 nM"}
{"Compound": "C=CC(=O)N[C@H]1CCC[C@H]1Nc1ncc2cc(-c3c(Cl)c(OC)cc(OC)c3Cl)c(=O)n(CC)c2n1", "IC50": "10 to 100 nM"}
{"Compound": "C=CC(=O)N[C@H]1CCOC[C@H]1Nc1ncc2cc(-c3c(Cl)c(OC)cc(OC)c3Cl)cc(F)c2n1", "IC50": "< 10 nM"}
{"Compound": "C=CC(=O)N[C@H]1C[C@@H]2C[C@@H]2[C@H]1Nc1ncc2cc(-c3c(Cl)c(OC)cc(OC)c3Cl)ccc2n1", "IC50": "< 10 nM"}
{"Compound": "C=CC(=O)N[C@H]1CN(C(=O)C2CC2)C[C@H]1Nc1ncc2cc(-c3c(Cl)c(OC)cc(OC)c3Cl)ccc2n1", "IC50": "< 10 nM"}
{"Compound": "C=CC(=O)NC1CN(C(C)=O)CC1Nc1ncc2cc(-c3c(Cl)c(OC)cc(OC)c3Cl)ccc2n1 (stereo not shown)", "IC50": "10 to 100 nM"}
{"Compound": "C=CC(=O)N[C@H]1COC[C@H]1Nc1ncc2cc(-c3c(Cl)c(OC)cc(OC)c3Cl)ccc2n1", "IC50": "< 10 nM"}
{"Compound": "C=CC(=O)N[C@H]1CN(S(=O)(=O)CC)C[C@H]1Nc1ncc2cc(-c3c(Cl)c(OC)cc(OC)c3Cl)ccc2n1", "IC50": "10 to 100 nM"}
